# target: EGFR exon 20 ASV Ins V769_D770 (Ba/F3 cells) (Homo sapiens, UniProt P00533, INS769ASV)
# Construct: expressed in transfected cells; host or cells: Ba/F3 (murine pro-B cells), retroviral transduction, puromycin selection, IL3-independent pool
# Sequence (P00533 with tags, fused parts or gaps INS769ASV): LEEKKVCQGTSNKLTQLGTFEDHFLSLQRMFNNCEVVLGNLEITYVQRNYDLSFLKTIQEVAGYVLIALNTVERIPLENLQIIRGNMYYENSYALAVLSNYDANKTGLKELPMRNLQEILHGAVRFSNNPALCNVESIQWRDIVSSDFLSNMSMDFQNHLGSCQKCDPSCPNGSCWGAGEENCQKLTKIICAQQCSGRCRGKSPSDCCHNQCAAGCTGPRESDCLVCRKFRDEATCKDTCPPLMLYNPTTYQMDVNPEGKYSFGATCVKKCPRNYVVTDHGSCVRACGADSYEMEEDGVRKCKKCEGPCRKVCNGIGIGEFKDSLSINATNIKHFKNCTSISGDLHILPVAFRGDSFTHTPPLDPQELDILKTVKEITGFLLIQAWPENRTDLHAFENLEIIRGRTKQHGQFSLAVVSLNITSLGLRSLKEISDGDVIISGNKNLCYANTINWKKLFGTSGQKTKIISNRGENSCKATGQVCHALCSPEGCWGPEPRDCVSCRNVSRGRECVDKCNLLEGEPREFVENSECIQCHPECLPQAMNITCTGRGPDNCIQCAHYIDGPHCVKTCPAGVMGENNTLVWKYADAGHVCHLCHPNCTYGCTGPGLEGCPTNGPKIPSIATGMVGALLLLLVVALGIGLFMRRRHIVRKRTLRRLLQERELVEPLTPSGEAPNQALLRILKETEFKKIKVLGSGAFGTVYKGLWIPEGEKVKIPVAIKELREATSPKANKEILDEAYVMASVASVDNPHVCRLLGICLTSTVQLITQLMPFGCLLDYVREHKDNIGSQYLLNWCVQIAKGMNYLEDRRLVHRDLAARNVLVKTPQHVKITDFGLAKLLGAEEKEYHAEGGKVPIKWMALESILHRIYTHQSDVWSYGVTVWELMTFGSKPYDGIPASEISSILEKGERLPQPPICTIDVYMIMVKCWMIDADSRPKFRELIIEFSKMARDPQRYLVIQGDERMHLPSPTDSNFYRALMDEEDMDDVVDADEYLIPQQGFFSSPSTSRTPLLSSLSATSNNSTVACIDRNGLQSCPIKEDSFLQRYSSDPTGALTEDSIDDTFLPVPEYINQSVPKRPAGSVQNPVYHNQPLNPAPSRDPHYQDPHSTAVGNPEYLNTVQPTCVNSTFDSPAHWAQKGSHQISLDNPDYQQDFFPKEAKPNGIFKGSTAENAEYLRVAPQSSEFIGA
# test: Inhibitor activity on EGFR phosphorylation (pEGFR AlphaLISA, 2 h), Ba/F3 EGFR exon 20 ASV Ins
# Type: cell-based
# reported-conditions: EGFR phosphorylation, AlphaLISA, 2 hours; read-out: ASV IC50 (pEGFR)
pIC50: −log10 of the molar value.
experimental-readout: pIC50

See these solved cases before continuing.
COc1c(Cl)cccc1Nc1c(-c2ccnc3[nH]ccc23)[nH]c2c1C(=O)NCC2 = > 7.00
COc1c(Cl)cccc1Nc1c(-c2ccnc3c2OCC(=O)N3)[nH]c2c1C(=O)NCC2 = > 7.00
COc1c(Cl)cccc1Nc1c(-c2ccnc3[nH]cnc23)[nH]c2c1C(=O)NCC2 = > 7.00

Value lookup for pIC50; key = COc1c(Cl)cccc1Nc1c(-c2ccnc3c2OCCN3)[nH]c2c1C(=O)NCC2
> 7.00

Can you look up the measured pIC50 of COc1c(Cl)cccc1Nc1c(-c2ccnc(N)c2)[nH]c2c1C(=O)NCC2 for me?
> 7.00

For the molecule shown here, CSc1c(Cl)cccc1Nc1c(-c2ccnc(N)n2)[nH]c2c1C(=O)NCC2 , give the reported pIC50.
> 7.00

What value of measured pIC50 is listed for COc1c(Cl)cccc1Nc1c(-c2ccnc(NC(=O)c3cccc(F)c3)n2)[nH]c2c1C(=O)NCC2 ?
> 7.00

Fill in the blank: the reported pIC50 of COc1c(Cl)cccc1Nc1c(-c2nc(N)ncc2C#N)[nH]c2c1C(=O)NCC2 is ____.
< 6.00

Which pIC50 value belongs to COc1c(Cl)cccc1Nc1c(-c2ccnc(C)n2)[nH]c2c1C(=O)NCC2 ?
6.00 to 7.00

Find the recorded pIC50 belonging to COc1c(Cl)cccc1Nc1c(-c2ccnc(C)n2)[nH]c2c1C(=O)NC[C@@H]2CC1COCCO1 (stereo in doubt) and report it.
> 7.00

* * *

# target: EGFR WT (Ba/F3 cells) (Homo sapiens)
# test: Inhibitor activity on EGFR-dependent cell growth (CellTiter-Glo, 72 h), Ba/F3 EGFR WT
# reported-conditions: read-out: BaF3 WT IC50
pIC50: −log10 of the molar value.
Let's look at some compounds and their measured pIC50.

COc1c(Cl)cccc1Nc1c(-c2ccnc3c2OCCN3)[nH]c2c1C(=O)NCC2 = < 6.00
Nc1nccc(-c2[nH]c3c(c2Nc2cccc4ccoc24)C(=O)NCC3)n1 = < 6.00
COc1c(Cl)cccc1Nc1c(-c2ccnc(-c3cnn(C)n3)n2)[nH]c2c1C(=O)NCC2 = < 6.00
C=CC(=O)N1CCC(Oc2nc3c(-c4[nH]c5c(c4Nc4cccc(Cl)c4OC)C(=O)NCC5)ccnc3cc2OC)CC1 = > 7.00

Return reported pIC50; argument: CCc1c(Cl)cccc1Nc1c(-c2ccnc(N)n2)[nH]c2c1C(=O)NCC2
< 6.00

Field request: pIC50 | item: CNc1nccc(-c2[nH]c3c(c2Nc2cccc(Cl)c2OC)C(=O)NCC3)n1
6.00 to 7.00

Looking for the measured pIC50 of COCC[C@@H]1CNC(=O)c2c1[nH]c(-c1ccncc1F)c2Nc1cccc(F)c1OC(F)F , can you help?
6.00 to 7.00

* * *

# target: EGFR exon 20 SVD Ins D770_N771 (Ba/F3 cells) (Homo sapiens, UniProt P00533, INS770SVD)
# Construct: expressed in transfected cells; host or cells: Ba/F3 (murine pro-B cells), retroviral transduction, puromycin selection, IL3-independent pool
# Sequence (P00533 with tags, fused parts or gaps INS770SVD): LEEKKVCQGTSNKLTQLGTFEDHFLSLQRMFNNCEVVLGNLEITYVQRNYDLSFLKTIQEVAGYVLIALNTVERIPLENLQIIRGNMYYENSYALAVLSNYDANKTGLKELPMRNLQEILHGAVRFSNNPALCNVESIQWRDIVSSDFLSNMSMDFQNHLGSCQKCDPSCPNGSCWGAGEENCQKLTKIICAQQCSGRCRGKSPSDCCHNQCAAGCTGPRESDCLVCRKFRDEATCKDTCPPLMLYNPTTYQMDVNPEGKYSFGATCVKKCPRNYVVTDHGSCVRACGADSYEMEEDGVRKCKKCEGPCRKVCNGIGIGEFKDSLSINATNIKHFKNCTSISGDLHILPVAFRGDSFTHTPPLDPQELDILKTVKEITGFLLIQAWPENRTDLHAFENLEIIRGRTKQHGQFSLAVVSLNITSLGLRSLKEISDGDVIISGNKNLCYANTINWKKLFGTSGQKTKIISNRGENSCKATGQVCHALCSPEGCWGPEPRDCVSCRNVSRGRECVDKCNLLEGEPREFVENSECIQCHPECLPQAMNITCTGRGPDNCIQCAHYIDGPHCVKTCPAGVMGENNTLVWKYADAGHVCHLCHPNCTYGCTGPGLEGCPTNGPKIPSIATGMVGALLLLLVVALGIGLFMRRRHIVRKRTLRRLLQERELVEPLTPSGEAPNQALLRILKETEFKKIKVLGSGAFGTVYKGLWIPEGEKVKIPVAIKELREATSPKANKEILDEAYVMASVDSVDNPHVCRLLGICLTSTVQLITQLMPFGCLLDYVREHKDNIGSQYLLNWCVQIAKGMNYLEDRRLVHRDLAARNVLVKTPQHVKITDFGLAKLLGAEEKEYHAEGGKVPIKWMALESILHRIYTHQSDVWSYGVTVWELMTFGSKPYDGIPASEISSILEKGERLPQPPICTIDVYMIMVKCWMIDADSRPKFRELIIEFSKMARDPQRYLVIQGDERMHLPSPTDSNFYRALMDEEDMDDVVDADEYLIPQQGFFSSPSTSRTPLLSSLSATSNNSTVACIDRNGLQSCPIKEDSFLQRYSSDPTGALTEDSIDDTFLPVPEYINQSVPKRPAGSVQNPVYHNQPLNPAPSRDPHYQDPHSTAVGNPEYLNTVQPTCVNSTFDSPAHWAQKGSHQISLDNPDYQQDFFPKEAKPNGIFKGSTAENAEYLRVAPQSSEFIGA
# test: Inhibitor activity on EGFR-dependent cell growth (CellTiter-Glo, 72 h), Ba/F3 EGFR exon 20 SVD Ins
# Format: cell-based
# reported-conditions: read-out: BaF3 SVD IC50
experimental-readout: IC50

Study these solved cases before continuing.
COc1c(Cl)cccc1Nc1c(-c2ccncc2F)[nH]c2c1C(=O)NC[C@H]2CC(N)=O = 100 to 1000 nM
COc1c(Cl)cccc1Nc1c(-c2ccnc3ccc(OC4COC4)nc23)[nH]c2c1C(=O)NCC2 = < 100 nM
COc1c(Cl)cccc1Nc1c(-c2ccnc3ccc(OC[C@H]4CCO4)nc23)[nH]c2c1C(=O)NCC2 = < 100 nM
COc1ccc2nccc(-c3[nH]c4c(c3Nc3cccc(F)c3C)C(=O)NCC4)c2n1 = < 100 nM
COc1c(F)cccc1Nc1c(-c2ccnc(Nc3cnn(C)n3)n2)[nH]c2c1C(=O)NCC2 = < 100 nM
COc1c(Cl)cccc1Nc1c(-c2ccnc3c2OCCN3)[nH]c2c1C(=O)NCC2 = 100 to 1000 nM
COc1c(Cl)cc(F)cc1Nc1c(-c2ccnc(C)n2)[nH]c2c1C(=O)NC[C@H]2C[C@@H]1COCCO1 = 100 to 1000 nM
COCc1ccc2nccc(-c3[nH]c4c(c3Nc3cccc(Cl)c3OC)C(=O)NCC4)c2n1 = < 100 nM

Find the recorded IC50 belonging to COc1c(Cl)cccc1Nc1c(-c2ccnc3ccc(OC4(C)CC4)nc23)[nH]c2c1C(=O)NCC2 and report it.
< 100 nM

* * *

Consider the following molecules and their measured pIC50 readings.
# target: EGFR exon 20 FQEA Ins A763_V764 (Ba/F3 cells) (Homo sapiens, UniProt P00533, INS763FQEA)
# Sequence (P00533 with tags, fused parts or gaps INS763FQEA): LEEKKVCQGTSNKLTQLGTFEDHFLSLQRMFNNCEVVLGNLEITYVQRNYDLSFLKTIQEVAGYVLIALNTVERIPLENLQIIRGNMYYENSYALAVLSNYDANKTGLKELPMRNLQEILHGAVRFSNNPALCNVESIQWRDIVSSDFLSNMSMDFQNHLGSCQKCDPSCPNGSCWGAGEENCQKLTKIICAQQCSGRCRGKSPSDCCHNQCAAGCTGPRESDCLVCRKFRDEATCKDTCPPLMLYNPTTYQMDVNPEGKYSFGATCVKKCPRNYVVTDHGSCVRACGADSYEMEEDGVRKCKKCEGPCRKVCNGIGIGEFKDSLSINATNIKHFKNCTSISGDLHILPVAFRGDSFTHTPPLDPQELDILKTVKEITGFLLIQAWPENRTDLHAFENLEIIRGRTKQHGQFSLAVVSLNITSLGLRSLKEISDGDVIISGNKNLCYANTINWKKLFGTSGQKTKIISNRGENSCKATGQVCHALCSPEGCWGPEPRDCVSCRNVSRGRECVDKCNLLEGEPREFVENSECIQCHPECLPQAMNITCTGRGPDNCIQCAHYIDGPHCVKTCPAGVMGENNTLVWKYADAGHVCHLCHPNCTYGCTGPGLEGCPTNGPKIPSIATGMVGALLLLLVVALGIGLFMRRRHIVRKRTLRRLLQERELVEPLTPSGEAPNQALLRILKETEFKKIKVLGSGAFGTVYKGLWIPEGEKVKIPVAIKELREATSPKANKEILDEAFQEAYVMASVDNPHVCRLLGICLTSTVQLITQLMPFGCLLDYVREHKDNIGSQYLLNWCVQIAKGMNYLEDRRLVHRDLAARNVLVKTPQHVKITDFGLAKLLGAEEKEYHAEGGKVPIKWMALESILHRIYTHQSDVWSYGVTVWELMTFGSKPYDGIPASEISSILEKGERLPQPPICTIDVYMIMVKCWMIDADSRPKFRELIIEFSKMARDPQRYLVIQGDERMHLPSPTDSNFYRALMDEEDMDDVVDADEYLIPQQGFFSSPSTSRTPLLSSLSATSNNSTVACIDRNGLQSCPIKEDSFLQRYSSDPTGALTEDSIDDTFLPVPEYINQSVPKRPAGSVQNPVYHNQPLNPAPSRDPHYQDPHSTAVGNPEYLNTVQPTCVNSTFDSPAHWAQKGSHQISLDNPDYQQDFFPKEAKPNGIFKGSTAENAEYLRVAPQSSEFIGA
# test: Inhibitor activity on EGFR-dependent cell growth (CellTiter-Glo, 72 h), Ba/F3 EGFR exon 20 FQEA Ins
# reported-conditions: read-out: BaF3 FQEA IC50
pIC50: −log10 of the molar value.

Study these solved cases before continuing.
COc1c(Cl)cccc1Nc1c(-c2ccncc2F)[nH]c2c1C(=O)NC[C@@H]2CCF [compound 813] = 6.00 to 7.00
COc1c(Cl)cccc1Nc1c(-c2ccnc3ccc(C4CC4)nc23)[nH]c2c1C(=O)NCC2 [compound 752] = > 7.00
COc1c(Cl)cccc1Nc1c(-c2ccnc(C)n2)[nH]c2c1C(=O)NC[C@@H]2CC1COCCO1 (stereo in doubt) [Compound 551] = 6.00 to 7.00
COc1c(Cl)cccc1Nc1c(-c2ccnc(N)n2)[nH]c2c1C(=O)NC[C@@H]2C [186a] = > 7.00
COc1c(Cl)cccc1Nc1c(-c2ccncc2F)[nH]c2c1C(=O)NCC2CC1CCO1 (single isomer, unassigned) [Compound 783] = 6.00 to 7.00

Under EGFR exon 20 FQEA Ins A763_V764 (Ba/F3 cells) (Homo sapiens, UniProt P00533, INS763FQEA): pIC50 value of COc1ncc2nccc(-c3[nH]c4c(c3Nc3c(F)cccc3F)C(=O)NCC4)c2n1 [Compound 806] ?
6.00 to 7.00

* * *

# target: EGFR WT (Ba/F3 cells) (Homo sapiens, UniProt P00533)
# Sequence (P00533 25-1210): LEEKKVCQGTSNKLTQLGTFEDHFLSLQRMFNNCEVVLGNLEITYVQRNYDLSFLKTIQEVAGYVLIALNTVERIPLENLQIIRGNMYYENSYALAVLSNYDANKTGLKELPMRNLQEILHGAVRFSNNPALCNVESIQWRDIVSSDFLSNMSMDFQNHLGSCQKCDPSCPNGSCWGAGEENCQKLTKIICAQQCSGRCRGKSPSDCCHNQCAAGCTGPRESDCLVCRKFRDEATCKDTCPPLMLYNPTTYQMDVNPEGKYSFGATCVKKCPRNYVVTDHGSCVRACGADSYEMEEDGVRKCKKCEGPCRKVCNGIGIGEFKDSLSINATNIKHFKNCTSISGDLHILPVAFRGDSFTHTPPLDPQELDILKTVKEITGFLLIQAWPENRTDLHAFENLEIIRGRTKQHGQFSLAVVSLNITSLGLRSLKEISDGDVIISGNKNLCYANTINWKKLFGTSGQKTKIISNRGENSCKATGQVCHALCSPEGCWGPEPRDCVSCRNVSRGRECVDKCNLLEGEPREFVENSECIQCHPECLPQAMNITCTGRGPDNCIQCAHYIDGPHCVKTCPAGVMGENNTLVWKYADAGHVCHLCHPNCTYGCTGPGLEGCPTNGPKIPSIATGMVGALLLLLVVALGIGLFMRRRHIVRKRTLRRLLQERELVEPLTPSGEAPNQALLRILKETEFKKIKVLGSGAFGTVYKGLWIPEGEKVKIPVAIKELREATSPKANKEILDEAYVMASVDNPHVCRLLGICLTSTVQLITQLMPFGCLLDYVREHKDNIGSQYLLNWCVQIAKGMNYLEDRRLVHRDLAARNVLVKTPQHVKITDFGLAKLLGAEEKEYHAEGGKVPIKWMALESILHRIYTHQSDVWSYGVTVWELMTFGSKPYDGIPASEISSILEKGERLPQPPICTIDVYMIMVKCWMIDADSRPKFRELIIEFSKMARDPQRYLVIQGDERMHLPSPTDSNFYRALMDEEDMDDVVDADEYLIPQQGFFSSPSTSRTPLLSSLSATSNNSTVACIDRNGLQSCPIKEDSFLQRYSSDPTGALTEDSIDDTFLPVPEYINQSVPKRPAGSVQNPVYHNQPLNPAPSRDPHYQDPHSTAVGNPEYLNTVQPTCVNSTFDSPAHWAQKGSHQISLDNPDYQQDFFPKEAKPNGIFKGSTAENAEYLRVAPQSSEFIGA
# test: Inhibitor activity on EGFR-dependent cell growth (CellTiter-Glo, 72 h), Ba/F3 EGFR WT
# reported-conditions: read-out: BaF3 WT IC50
experimental-readout: IC50

Here are 6 compounds together with their reported answers.
C=CC(=O)N1CCC2(CC1)CNC(=O)c1c2[nH]c(-c2ccncc2F)c1Nc1cccc(Cl)c1CC [Compound 558] = < 100 nM
COc1c(Cl)cccc1Nc1c(-c2ccncc2F)[nH]c2c1C(=O)NC[C@@H]2CC(=O)N(C)C [Compound 488] = > 1000 nM
COc1c(Cl)cccc1Nc1c(-c2ccnc(N)n2)[nH]c2c1C(=O)NC[C@H]2C[C@H]1COCCO1 [Compound 571] = 100 to 1000 nM
COc1c(Cl)cccc1Nc1c(-c2ccnc(-c3cn(C)nn3)n2)[nH]c2c1C(=O)NCC2 [compound 545] = > 1000 nM
COc1cc(Cl)cc(Nc2c(-c3ccnc(N)n3)[nH]c3c2C(=O)NCC3)c1 [compound 302] = > 1000 nM
COc1c(Cl)cccc1Nc1c(-c2ccnc3cnc(OC4CC4)nc23)[nH]c2c1C(=O)NCC2 [Compound 771] = < 100 nM

Tell me the measured IC50 of N#Cc1c(F)cccc1Nc1c(-c2ccnc(N)n2)[nH]c2c1C(=O)NCC2 [compound 200] , please.
> 1000 nM

Data request, read-out IC50, for COc1c(F)cccc1Nc1c(-c2ccncn2)[nH]c2c1C(=O)NCC21CCN(C(=O)/C=C/CN(C)C)CC1 [compound 650]
> 1000 nM

Please look up its IC50: COc1c(Cl)cccc1Nc1c(-c2ccnc3cnc(C4CC4)nc23)[nH]c2c1C(=O)NCC2 [Compound 776]
100 to 1000 nM

Tell me the measured IC50 of COc1c(F)cccc1Nc1c(-c2ccncc2F)[nH]c2c1C(=O)NC[C@@H]2C[C@@H]1COCCO1 [Compound 526] , please.
> 1000 nM

Which IC50 value belongs to COc1c(Cl)cccc1Nc1c(-c2ncnc3[nH]ccc23)[nH]c2c1C(=O)NCC2 [compound 289] ?
> 1000 nM

Reported IC50, compound COc1c(Nc2c(-c3ccnc(N)n3)[nH]c3c2C(=O)NCC3)ccc(F)c1Cl [compound 713] : ____
> 1000 nM

Name the recorded IC50 for COc1c(F)cccc1Nc1c(-c2ncnc3sccc23)[nH]c2c1C(=O)NCC2 [compound 138] .
> 1000 nM
